Biological target: T1, human CD73 (SEQ ID NO: 70) (Homo sapiens, UniProt P21589)
T1 construct: purchased BPS Bioscience
T1 sequence (P21589 27-549): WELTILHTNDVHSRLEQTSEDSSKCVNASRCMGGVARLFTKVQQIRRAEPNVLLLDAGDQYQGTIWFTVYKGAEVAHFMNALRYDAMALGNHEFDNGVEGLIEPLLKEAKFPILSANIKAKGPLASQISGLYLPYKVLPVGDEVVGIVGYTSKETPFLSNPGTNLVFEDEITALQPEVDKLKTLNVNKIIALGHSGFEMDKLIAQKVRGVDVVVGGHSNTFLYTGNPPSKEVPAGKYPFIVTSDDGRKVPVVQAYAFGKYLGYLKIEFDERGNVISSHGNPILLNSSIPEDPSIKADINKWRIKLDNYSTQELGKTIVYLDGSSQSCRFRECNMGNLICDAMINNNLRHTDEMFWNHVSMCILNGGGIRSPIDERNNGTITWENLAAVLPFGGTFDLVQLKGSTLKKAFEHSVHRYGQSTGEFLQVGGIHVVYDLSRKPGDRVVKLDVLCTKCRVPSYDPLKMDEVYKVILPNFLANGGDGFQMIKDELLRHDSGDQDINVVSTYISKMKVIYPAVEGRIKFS
Assay: SPR (Biacore 8K) binding affinity and kinetics to human CD73
Details: human CD73, open conformation, 25° C.
Each record here notes measured kd.

The examples below pair each entry with its known result.
• CL25: chimeric anti-human CD73 monoclonal antibody, murine VH SEQ ID NO:26 and VL SEQ ID NO:27 with human IgG1 Fc (antibody, V domains shown, human IgG1 Fc constant regions without entry) VH: QVQLQQSGAELARPGASVKLSCRASGYTFTSYGLSWVKQRTGQGLEWIGEIYPGSGNTYYNEKFKGKATLTADKSSSTAYMELRSLTSEDSAVYFCARYDYLGSSYGFDYWGQGTTLTVSS VL: DIVMTQSHKFMSTSVGDRVSITCKASQDVSTAVAWYQQKPGQSPKLLIYSASYRYNGVPDRFTGSGSGTDFTFTISSVQAEDLAVYYCQQHYNTPYTFGGGTKLEIK = 0.000394 s⁻¹
• CL25_hu_8-4: humanized CL25 antibody, VH and VL in FIG. 1B (antibody, V domains shown) VH: QVQLVQSGAEVKKPGASVKVSCKASGYTFTSYGLSWVRQATGQGLEWMGEIYPGSGNTYYNEKFKGRVTMTRNTSISTAYMELSSLRSEDTAVYYCARYDYLGSSYGFDYWGAGTTVTVSS VL: DIQMTQSPSSLSASVGDRVTITCKASQDVSTAVAWYQQKPGKAPKLLLYSASYRYSGVPSRFSGSGSGTDYTLTISSLQPEDFATYYCQQHYNTPYTFGGGTKLEIK = 0.00176 s⁻¹

Now consider the entry below.
Request: Look up kd for this molecule: CL25_hu_8-5: humanized CL25 antibody, VH and VL in FIG. 1B (antibody, V domains shown) VH: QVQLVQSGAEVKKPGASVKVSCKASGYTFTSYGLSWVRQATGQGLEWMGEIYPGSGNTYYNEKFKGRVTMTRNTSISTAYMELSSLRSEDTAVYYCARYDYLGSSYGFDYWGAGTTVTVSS VL: DIVMTQSPDSLAVSLGERATINCKASQDVSTAVAWYQQKPGQPPKLLIYSASYRYSGVPDRFSGSGSGTDFTLTISSLQAEDVAVYYCQQHYNTPYTFGGGTKLEIK
Result: 0.000949 s⁻¹
